# Test system: SK-MEL-28 melanoma
# experimentalProtocol: NCI tumour cell line growth inhibition, 48 h
Listing: GI50 of selected molecules

Example results:
# molecule, endpointValue
measured = [
    ("CSc1nc2sc3cc(Cl)ccc3n2c(=N)c1C#N", "11.6 µM"),
    ("COc1cc(C(=O)c2cc3c(cc2C)OCO3)cc(OC)c1OC", "0.0879 µM"),
    ("Cc1ccc(S(=O)(=O)N2CCc3ccc(O)c4c3C2Cc2cc(Cl)ccc2-4)cc1 (centres undefined)", "1.68 µM"),
    ("Cn1cc(C2=C(c3cn(CCN)c4ccccc34)C(=O)NC2=O)c2ccccc21", "7.68 µM"),
    ("COc1cc2nc(Nc3cccc(F)c3)nc(Nc3cc(C)[nH]n3)c2cc1OC", "1.77 µM"),
]

Lookup: GI50 / SK-MEL-28 melanoma / `C[C@@H]1C=C2C(=O)O[C@@H]3CC[C@H](C1)[C@]23O`
6.17 µM

Find GI50 (SK-MEL-28 melanoma) for the entry `CCOC(=O)c1c(C(F)(F)F)n([O-])c2ccc(OC)cc2[n+]1=O`
20.3 µM

Hi! What's the reported GI50 for `NS(=O)(=O)c1ccc(CCN=C=S)cc1` on SK-MEL-28 melanoma?
2.59 µM

What GI50 appears in the records for this molecule with SK-MEL-28 melanoma? `COc1ccc2c(c1)CC[C@@H]1[C@@H]2CC[C@]2(C)C(c3ccco3)=C(C=O)C[C@@H]12`
15.8 µM

----------
# Tested on: DU-145 prostate
# experimentalProtocol: NCI tumour cell line growth inhibition, 48 h
measuredProperty: GI50

# smilesRepresentation, endpointValue
measured = [
    ("CCn1cnc2c(Nc3cccc(Cl)c3)nc(N[C@@H]3CCCC[C@@H]3N)nc21", "1.01 µM"),
]

Requested read-out: GI50. Entry: `CCOC(=O)c1c(C(F)(F)F)n([O-])c2ccc(OC)cc2[n+]1=O`
5.15 µM

Sample `CSc1nc2sc3cc(Cl)ccc3n2c(=N)c1C#N` — what was its GI50?
> 68.7 µM

----------
# Test system: SK-MEL-5 melanoma
# experimentalProtocol: NCI tumour cell line growth inhibition, 48 h
measuredProperty: TGI

# compound, assayedTarget, endpointValue
data = [
    ("N.N.NCCCCN.O=C([O-])C1(C(=O)[O-])CCC1.O=C([O-])C1(C(=O)[O-])CCC1.[Pt+4].[Pt+4]", "SK-MEL-5 melanoma", "> 100 µM"),
    ("COc1cccc(/C=C2\\CCCCCC2=O)c1", "SK-MEL-5 melanoma", "> 100 µM"),
    ("c1ccc2c(c1)Nc1nc3nonc3nc1N2", "SK-MEL-5 melanoma", "> 100 µM"),
]

Which value of TGI has been reported for `COc1cc(-n2cc(-c3ccc(Cl)cc3)[nH]c2=O)cc(OC)c1OC` in the records?
> 100 µM

Which measured TGI value corresponds to `C1=Cc2nc1c(-c1ccncc1)c1ccc([n-]1)c(-c1ccncc1)c1nc(c(-c3ccncc3)c3ccc([n-]3)c2-c2ccncc2)C=C1.[Zn+2]` ?
> 100 µM

// returns reported TGI for input Cc1cc(Cl)ccc1N=C1NC(=O)C(CC(=O)Nc2ccc(Cl)cc2Cl)S1 (stereo unspecified)
> 100 µM

Which TGI reading was recorded for the compound `Nc1c(C(=O)Nc2ccccc2Cl)sc2nc3c(cc12)CCCCCC3` ?
> 100 µM

Entry COc1cccc(N2C(=O)CSC2c2cc(OC)c(OC)c(OC)c2)c1 (stereo unspecified) : reported TGI = ?
> 100 µM

Find the recorded TGI belonging to `COc1ccccc1Cn1nc(OC)c2cc([N+](=O)[O-])ccc21` and report it.
> 100 µM

Look up TGI: `CCCCCCCC/C=C\CCCCCCCC(=O)NCCN(CCN)C(=O)CCCCCCC/C=C\CCCCCCCC`
> 100 µM

# query: TGI of entry `CCOC(=O)c1[nH]c2ccccc2c1C(=O)C[C@H](NC(=O)C(F)(F)F)C(=O)OC`
> 100 µM
